# test: in vivo
# experimental-context: SD, rat
Positions of bridges follow the written chain, without caps; N, C: chain ends. Non-standard residues stand in square brackets, D forms with d. Residues, ends and D or L forms follow the SMILES beside them. *: point of attachment. Heptanoyl(5-Me) = CCC(C)CCCC(=O)*; Dab = NCC[C@H](N)C(=O)O
observation-type: MRT (h)
State the answer as a number, implicitly in h.

Problem: For CCC(C)CCCC(=O)N[C@@H](CCN)C(=O)N[C@H](C(=O)N[C@@H](CCN)C(=O)N[C@H]1CCNC(=O)[C@H]([C@@H](C)O)NC(=O)[C@H](CCN)NC(=O)[C@H](CCN)NC(=O)[C@H](CC(C)C)NC(=O)[C@@H](CC(C)C)NC(=O)[C@H](CCN)NC1=O)[C@@H](C)O (stereo partly drawn) ({Heptanoyl(5-Me)}-[Dab]T[Dab][Dab][Dab][dL]L[Dab][Dab]T; lactam 4-C) , write its MRT.
Result: 1.63
